# system.tested: dihydroceramide desaturase (Rattus norvegicus, UniProt Q5XIF5)
# Construct: from tissue; host or cells: rat liver microsomes
# Sequence (Q5XIF5 whole entry): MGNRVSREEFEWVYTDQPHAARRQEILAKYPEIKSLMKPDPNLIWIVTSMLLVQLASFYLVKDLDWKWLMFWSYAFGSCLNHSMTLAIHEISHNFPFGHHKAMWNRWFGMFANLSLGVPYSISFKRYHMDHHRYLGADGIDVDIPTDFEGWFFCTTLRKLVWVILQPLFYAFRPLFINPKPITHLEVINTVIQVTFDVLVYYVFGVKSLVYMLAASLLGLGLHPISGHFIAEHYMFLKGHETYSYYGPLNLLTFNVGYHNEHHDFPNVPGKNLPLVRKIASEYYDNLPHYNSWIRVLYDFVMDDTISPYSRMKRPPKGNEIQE
# test.name: Inhibitory activity on dihydroceramide desaturase in rat liver microsomes (GC-MS quantification of the desaturated product)
# Format: biochemical
# experimental.parameters: substrate N-octanoyldihydrosphingosine 10 nmoles, NADH, 37°C for 30 minutes, without preincubation, effect dose-dependent
endpoint.label: pIC50
FYI, pIC50 means -log10 of a concentration in mol per litre.

Exam item: Any idea what its pIC50 is? The molecule is CCCCCCCCCCCCCC1=C(C(O)C(CO)NC(=O)CCCCCCC)C1 (single isomer, unassigned) [la]
Marked response: 7.28
